Species on record: Rattus norvegicus
PROTOCOL: Open TG-GATES - Regimen: Single
Type: toxicity, organism-based, Sprague-Dawley
Design: regimen Single, gender Male, age 6 weeks
MEASUREMENT CONDITIONS: in vivo, po, 0 mg/kg, 9 h, tissue Plasma, route gavage, dose level Control
Known Na of a selection of molecules
Kindly provide the numeric value in meq/L only, without the unit symbol.

Examples with answers:
NNC(=O)c1ccncc1 [ISONIAZID] = 142.2
CCCNC(=O)NS(=O)(=O)c1ccc(Cl)cc1 [CHLORPROPAMIDE] = 142.8
COc1cc2c(c(OC)c1OC)-c1ccc(OC)c(=O)cc1[C@@H](NC(C)=O)CC2 [COLCHICINE] = 137.6
CC1=C(/C=C/C(C)=C/C=C/C(C)=C/CO)C(C)(C)CCC1 [RETINOL] = 142
NC(N)=Nc1nc(CSCCC(N)=NS(N)(=O)=O)cs1 [FAMOTIDINE] = 140

// query Na value for entry C[C@@H]1C[C@H]2[C@@H]3CCC4=CC(=O)C=C[C@]4(C)[C@@]3(F)[C@@H](O)C[C@]2(C)[C@@]1(O)C(=O)CO [DEXAMETHASONE]
140.8

// query Na value for entry CCOC(=O)CCC(=O)O[C@H]1[C@H](O[C@@H]2[C@@H](C)[C@H](O[C@H]3C[C@@](C)(OC)[C@@H](O)[C@H](C)O3)[C@@H](C)C(=O)O[C@H](CC)[C@@](C)(O)[C@H](O)[C@@H](C)C(=O)[C@H](C)C[C@@]2(C)O)O[C@H](C)C[C@@H]1N(C)C [ERYTHROMYCIN ETHYLSUCCINATE]
139.2

// query Na value for entry CN1C(=O)CN=C(c2ccccc2)c2cc(Cl)ccc21 [DIAZEPAM]
138.6

// query Na value for entry O=C(CCCN1CCC(O)(c2ccc(Cl)cc2)CC1)c1ccc(F)cc1 [HALOPERIDOL]
138

// query Na value for entry Cc1ccc(C)c(OCCCC(C)(C)C(=O)O)c1 [GEMFIBROZIL]
143.4

// query Na value for entry CN(C)CCCN1c2ccccc2CCc2ccc(Cl)cc21 [CLOMIPRAMINE]
140.6

// query Na value for entry COC1=CC(=O)C[C@@H](C)[C@]12Oc1c(Cl)c(OC)cc(OC)c1C2=O [GRISEOFULVIN]
141.8
